B1: C2CD2L (parent)
chain: EPAGSLRELGVWRSLLRLRATRAG

Variants of: B1
Assay: protein stability index of a GFP-peptide fusion (GPS, HEK-293T) (PSI 1-6); higher = more stable;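 further: lentivirally expressed fusions sorted by FACS into six bins by GFP to DsRed ratio, PSI derived from sequencing read proportions per bin multiplied by bin number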
Details: c terminus: a fixed tail appended
Entries and their measured protein stability index follow.
OUTCOME MEASURE: protein stability index

A20E : 3
P2V : 1.82
A3V : 2.77
E8P : 2.93
G10H : 3.78
E8S : 2.49
G24V : 2.25
L15K : 2.96
V11K : 3.37
L15N : 3.47
R19Y : 1.48
R17W : 1.6
R13Y : 1.91
A3I : 2.84
P2H : 1.42
G24P : 1.96
G4Y : 3.48
V11D : 3.74
A23M : 1.62
S14P : 2.98
L16P : 4.09
G24N : 1.91
A20M : 2.48
T21V : 1.7
A3F : 1.47
R13F : 1.81
E1T : 1.84
A23L : 2.2
P2E : 2.5
R7P : 3.35
A20H : 2.67
R19T : 2.91
W12D : 1.9
E1R : 2.25
G4N : 1.98
P2G : 1.1
A20T : 1.85
T21W : 1.31
S5D : 2.56
G10T : 2.9
L16F : 2.26
L9W : 2.37
L9Y : 4.48
G24Q : 2.77
L6C : 2.17
R17M : 1.2
